pIC50: −log10 of the molar value.
Here's a batch of compounds along with measured pIC50 for pancreatic lipase (PL) (Sus scrofa).
recorded.endpoint: pIC50

compound: CCCCCCCCCCCCCCCCOc1nn(-c2ccc(OC(F)(F)F)cc2)c(=O)o1 [Example 2]
measured: 6.60
//
compound: CCCCCCCCCCCOc1nn(-c2ccc(OC(F)(F)F)cc2)c(=O)o1 [Example 15]
measured: 6.22

----------
molecule: CCCCCCCCCCCCCCOc1nn(-c2ccc(OC(F)(F)F)cc2)c(=O)o1 [Example 16]
units.text: °C
melting point: 46
//
molecule: CCCCCCCCCCCCCCCCOc1nn(-c2ccc(OC)cc2)c(=O)o1 [Example 12]
units.text: °C
melting point: 66
//
molecule: CCCCCCCCCCCCCCCCCCCCCCOCCOc1nn(-c2ccc(OC(F)(F)F)cc2)c(=O)o1 [Example 25]
units.text: °C
melting point: 71
//
molecule: O=c1oc(OCCc2ccc(F)cc2)nn1-c1ccc(OC(F)(F)F)cc1 [Example 21]
units.text: °C
melting point: 60
//
molecule: CCCCCCCCCCCCCCCCOc1nn(-c2ccc(OCc3ccccc3)cc2)c(=O)o1 [Example 13]
units.text: °C
melting point: 73
//
molecule: CCCCCCCCCCCCOc1nn(-c2ccc(OC(F)(F)F)cc2)c(=O)o1 [Example 29]
units.text: °C
melting point: 41
//
molecule: CCCCCCCCCCCCOc1nn(-c2ccc(OCc3ccccc3)cc2)c(=O)o1 [Example 37]
units.text: °C
melting point: 65
//
molecule: CCCCCCCCCCCCCCCCOc1nn(-c2cccc(OCc3ccccc3)c2)c(=O)o1 [Example 9]
units.text: °C
melting point: 65
//
molecule: CCCCCCCCCCCCOc1nn(-c2cccc([N+](=O)[O-])c2)c(=O)o1 [Example 34]
units.text: °C
melting point: 64

----------
molecules and their reported melting point

molecule: CCCCCCCCCCCCOc1nn(-c2ccc([N+](=O)[O-])c(C)c2)c(=O)o1
melting point, °C: 62
//
molecule: CCCCCCCCCCCCCCCCOc1nn(-c2ccc(Oc3ccc(Cl)cc3)cc2)c(=O)o1
melting point, °C: 52
//
molecule: CCCCCCCCCCCCCCCCOc1nn(-c2ccccc2)c(=O)o1
melting point, °C: 63
//
molecule: CCCCCCCCCCCCOc1nn(-c2ccc(OC)cc2)c(=O)o1
melting point, °C: 57
//
molecule: CC(C)CCC[C@@H](C)[C@H]1CC[C@H]2[C@@H]3CCC4C[C@@H](Oc5nn(-c6ccc(OC(F)(F)F)cc6)c(=O)o5)CC[C@]4(C)[C@H]3CC[C@]12C (stereo partly shown)
melting point, °C: 127
//
molecule: CCCCCCCCCCCOc1nn(-c2ccc(OC(F)(F)F)cc2)c(=O)o1
melting point, °C: 38
//
molecule: CCCCCCCCCCCCCCCCOc1nn(-c2ccc([N+](=O)[O-])cc2)c(=O)o1
melting point, °C: 72
